target: K-Ras protein (Homo sapiens, UniProt P01116, G12V); construct: in SW620 cells, compound I-a-1 can effectively enhance the degradation of endogenous K-RAS-G12V proteins; endogenous in cells; host or cells: SW-620; test: K-Ras protein degradation rate by Western blot in SW-620 cells; type: cell-based; conditions: 10 μM, SW-620 cells, 24 h, Western blot, relative to DMSO control; read-out: Degradation rate of compounds at 10 μM on Ras protein (%)
Sequence (P01116 1-188 isoform P01116-2 G12V): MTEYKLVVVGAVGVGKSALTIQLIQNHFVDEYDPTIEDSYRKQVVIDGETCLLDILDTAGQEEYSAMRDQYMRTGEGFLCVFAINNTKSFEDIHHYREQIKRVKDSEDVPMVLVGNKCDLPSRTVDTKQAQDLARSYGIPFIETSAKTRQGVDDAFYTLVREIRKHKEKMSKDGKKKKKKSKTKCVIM
Measured quantity: percent K-Ras protein degradation (single point) at 10 µM (%)

Look over these answered cases.
O=C(NCc1c(F)cccc1Cl)c1ccc(-c2nnc3ccccn23)cc1 [X-e-1] ... 10
CC(C)(C)n1nc(-c2cccc(C(=O)Nc3ccccc3)c2)c2c(N)ncnc21 [VI-d-2] ... 30
O=C(NCc1ccccc1Br)c1c[nH]c(-c2n[nH]c3ncccc23)c1 [III-f-42] ... 70
O=C(NCc1c(F)cccc1Cl)c1coc(-c2c[nH]c3ccccc23)c1 [IV-c-1] ... 30
O=C(NC1CCCCC1)c1ccc(-c2cnc3cnccn23)s1 [VII-f-3] ... 20
O=C(Nc1ccccc1)c1coc(-c2cnc3ccccn23)c1 [IX-c-2] ... 40

a: O=C(NCc1ccccc1O)c1c[nH]c(-c2n[nH]c3ncccc23)c1 [III-f-35]
b: O=C(NCc1c(F)cccc1Cl)c1coc(-c2nnc3ccccn23)c1 [X-c-1]
c: O=C(NCc1c(F)cccc1Cl)c1ccc(-c2n[nH]c3ccccc23)[nH]1 [I-g-1]
d: O=C(NCc1c(F)cccc1Cl)c1csc(-c2cnc3cnccn23)c1 [VII-a-1]
e: O=C(NC1CCCCC1)c1ccc(-c2cnc3cccnn23)s1 [VIII-f-3]
Exercise: Put the compounds in ascending order of percent K-Ras protein degradation (single point) at 10 µM. Dear reader, please state the labels in the requested order.
Key: d, b, e, c, a
(d: 5%, b: 10%, e: 15%, c: 30%, a: 50%)

###

target: K-Ras protein (Homo sapiens, UniProt P01116, G12V); construct: in SW620 cells, compound I-a-1 can effectively enhance the degradation of endogenous K-RAS-G12V proteins; endogenous in cells; host or cells: SW-620; test: K-Ras protein degradation rate by Western blot in SW-620 cells; format: cell-based; settings: 10 μM, SW-620 cells, 24 h, Western blot, relative to DMSO control; read-out: Degradation rate of compounds at 10 μM on Ras protein (%)
Measured quantity: percent K-Ras protein degradation (single point) at 10 µM (%)

a: O=C(NCc1cccc(OC(F)(F)F)c1)c1c[nH]c(-c2n[nH]c3ncccc23)c1 [III-f-38]
b: O=C(NCc1cc(F)cc(C(F)(F)F)c1)c1c[nH]c(-c2n[nH]c3ncccc23)c1 [III-f-58]
Exercise: Lab note: record which item had the higher percent K-Ras protein degradation (single point) at 10 µM, a or b . Answer with the label corresponding to your selection.
Key: b

P: O=C(NCc1cc(C(F)(F)F)ccc1F)c1csc(-c2cnc3cccnn23)c1 [VIII-a-3]
Q: O=C(NCc1c(F)cccc1Cl)c1coc(-c2n[nH]c3ccccc23)c1 [I-c-1]
Exercise: Lab note: record which item had the higher percent K-Ras protein degradation (single point) at 10 µM, P or Q . Answer with the label corresponding to your selection.
Key: P
(P: 50%, Q: 11%)

a: O=C(NCc1c(F)cccc1Cl)c1ccc(-c2c[nH]c3ncccc23)s1 [II-e-1]
b: O=C(NCc1ccccc1OC(F)(F)F)c1c[nH]c(-c2n[nH]c3ncccc23)c1 [III-f-39]
Exercise: Lab note: record which item had the higher percent K-Ras protein degradation (single point) at 10 µM, a or b . Answer with the label corresponding to your selection.
Key: b

###

target: K-Ras protein (Homo sapiens, UniProt P01116, G12V); construct: in SW620 cells, compound I-a-1 can effectively enhance the degradation of endogenous K-RAS-G12V proteins; endogenous in cells; host or cells: SW-620; experiment: K-Ras protein degradation rate by Western blot in SW-620 cells; type: cell-based; settings: 10 μM, SW-620 cells, 24 h, Western blot, relative to DMSO control; read-out: Degradation rate of compounds at 10 μM on Ras protein (%)
Measured quantity: percent K-Ras protein degradation (single point) at 10 µM (%)

a: O=S(=O)(Cc1c(F)cccc1Cl)c1c[nH]c(-c2n[nH]c3ncccc23)c1
b: O=C(NCc1cc(C(F)(F)F)cc(C(F)(F)F)c1)c1c[nH]c(-c2n[nH]c3ncccc23)c1
c: O=C(NCCc1ccccc1)c1c[nH]c(-c2n[nH]c3ncccc23)c1
d: O=C(NCc1ccc(Cl)c(Cl)c1)c1c[nH]c(-c2n[nH]c3ncccc23)c1
Exercise: Given 4 molecules, produce a descending ranking by percent K-Ras protein degradation (single point) at 10 µM. Dear reader, please state the labels in the requested order.
Key: b, a, d, c
(b: 60%, a: 41%, d: 19%, c: 13%)

###

target: K-Ras protein (Homo sapiens, UniProt P01116, G12V); construct: in SW620 cells, compound I-a-1 can effectively enhance the degradation of endogenous K-RAS-G12V proteins; endogenous in cells; host or cells: SW-620; assay: K-Ras protein degradation rate by Western blot in SW-620 cells; assay type: cell-based; conditions: 10 μM, SW-620 cells, 24 h, Western blot, relative to DMSO control; read-out: Degradation rate of compounds at 10 μM on Ras protein (%)
Measured quantity: percent K-Ras protein degradation (single point) at 10 µM (%)

Look over these answered cases.
O=C(NCc1c(F)cccc1Cl)c1coc(-c2cnc3ccccn23)c1 ... 40
O=C(NC1CCCCC1)c1ccc(-c2cnc3cccnn23)cc1 ... 20
O=C(NCc1cccc(C(F)(F)F)c1)c1csc(-c2n[nH]c3ccccc23)c1 ... 20
Cc1cccc(CNC(=O)c2c[nH]c(-c3n[nH]c4ncccc34)c2)c1 ... 40
O=C(NCc1c(F)cccc1Cl)c1csc(-c2cnc3cccnn23)c1 ... 40

A: O=C(NC1CCCCC1)c1ccc(-c2c[nH]c3ccccc23)cc1
B: O=C(Nc1ccccc1)c1ccc(-c2cnc3cnccn23)cc1
Exercise: Field: lower percent K-Ras protein degradation (single point) at 10 µM | Options: A / B Answer with the label corresponding to your selection.
Key: B

###

biological target: K-Ras protein (Homo sapiens, UniProt P01116, G12V); construct: in SW620 cells, compound I-a-1 can effectively enhance the degradation of endogenous K-RAS-G12V proteins; endogenous in cells; host or cells: SW-620; experiment: K-Ras protein degradation rate by Western blot in SW-620 cells; assay type: cell-based; settings: 10 μM, SW-620 cells, 24 h, Western blot, relative to DMSO control; read-out: Degradation rate of compounds at 10 μM on Ras protein (%)
Measured quantity: percent K-Ras protein degradation (single point) at 10 µM (%)

Look over these answered cases.
O=C(Nc1ccccc1)c1c[nH]c(-c2n[nH]c3ccccc23)c1 [I-b-2] ... 56
O=C(NCc1ccccc1Cl)c1c[nH]c(-c2n[nH]c3ncccc23)c1 [III-f-47] ... 50
O=C(NCc1cccc(C(F)(F)F)c1)c1csc(-c2cnc3cnccn23)c1 [VII-a-2] ... 60

1: O=C(NCc1ccccc1F)c1c[nH]c(-c2n[nH]c3ncccc23)c1 [III-f-45]
2: O=C(NCc1c(F)cccc1Cl)c1ccc(-c2cnc3cnccn23)s1 [VII-f-1]
3: O=C(NCc1c(F)cccc1Cl)c1ccc(-c2c[nH]c3ccccc23)s1 [IV-f-1]
Exercise: Put the compounds in ascending order of percent K-Ras protein degradation (single point) at 10 µM. Dear reader, please state the labels in the requested order.
Key: 3, 2, 1

###

target: K-Ras protein (Homo sapiens, UniProt P01116, G12V); construct: in SW620 cells, compound I-a-1 can effectively enhance the degradation of endogenous K-RAS-G12V proteins; endogenous in cells; host or cells: SW-620; experiment: K-Ras protein degradation rate by Western blot in SW-620 cells; assay type: cell-based; settings: 10 μM, SW-620 cells, 24 h, Western blot, relative to DMSO control; read-out: Degradation rate of compounds at 10 μM on Ras protein (%)
Measured quantity: percent K-Ras protein degradation (single point) at 10 µM (%)

CC(C)(C)n1nc(-c2cccc(C(=O)NCc3c(F)cccc3Cl)c2)c2c(N)ncnc21 ... 30

I: O=C(NCc1ccc(C(F)(F)F)cc1)c1c[nH]c(-c2n[nH]c3ncccc23)c1
II: CC(C)Oc1ccc(NC(=O)c2c[nH]c(-c3n[nH]c4ncccc34)c2)cc1
III: O=C(Nc1c(F)cccc1Cl)c1ccc(-c2n[nH]c3ncccc23)cc1
Exercise: Put the compounds in ascending order of percent K-Ras protein degradation (single point) at 10 µM. Dear reader, please state the labels in the requested order.
Key: II, III, I

P: O=C(NCc1c(F)cccc1Cl)c1c[nH]c(-c2n[nH]c3ncccc23)c1
Q: O=C(Nc1ccc(OC(F)(F)F)cc1)c1c[nH]c(-c2n[nH]c3ncccc23)c1
Exercise: Field: lower percent K-Ras protein degradation (single point) at 10 µM | Options: P / Q Answer with the label corresponding to your selection.
Key: Q
